Test system: 276233-004-R-J1-PDC complex spheroid viability
Test: Anticancer human tumor 276233-004-R-J1-PDC patient-derived colon adenocarcinoma cell line growth inhibition [GQUAD]
Settings: second compound 0.316 µM; first compound 0.1 µM; stronger effect = lower value
// NB: equality with 70% counts as n; only viability, T/C strictly below is y

Some solved entries appear below for comparison.
CC1COCCN1c1cc(C2(S(C)(=N)=O)CC2)nc(-c2ccnc3[nH]ccc23)n1 (stereo unspecified) + CN(C)c1ccc(Nc2c3ccc(NC(=O)CCN4CCCC4)cc3nc3cc(NC(=O)CCN4CCCC4)ccc23)cc1 = n
Nc1ccn(C2OC(CO)C(O)C2(F)F)c(=O)n1 (stereo unspecified) + Cc1cnc(CNC(=O)c2c(=O)c3ccc(N4CCCN(C)CC4)nc3n3c2sc2ccccc23)cn1 = n
O=C(NO)c1cnc(N2CCN(S(=O)(=O)c3ccc4ccccc4c3)CC2)nc1 + Cc1cnc(CNC(=O)c2c(=O)c3ccc(N4CCCN(C)CC4)nc3n3c2sc2ccccc23)cn1 = n

Determine if Cc1cccc(N(C)C(=O)C2C(O)CCN2c2nc(C)cc(C(F)(F)F)c2C#N)c1 (stereo unspecified) + Cc1[nH]c2ccc(F)cc2c1-c1nc2c3cccnc3c3ncccc3c2[nH]1 shows viability, T/C strictly lower than 70%. n

Determine if C=CC(=O)N1CCN(c2nc(=O)n(-c3c(C)ccnc3C(C)C)c3nc(-c4c(O)cccc4F)c(F)cc23)C(C)C1 (stereo unspecified) + CN(C)c1ccc(Nc2c3ccc(NC(=O)CCN4CCCC4)cc3nc3cc(NC(=O)CCN4CCCC4)ccc23)cc1 shows viability, T/C strictly lower than 70%. n

Determine if COc1ccc([C@@H](O)c2cc(-c3ncnc4cc(N5CCOCC5)ccc34)c(F)cc2Cl)nn1 + CN(C)c1ccc(Nc2c3ccc(NC(=O)CCN4CCCC4)cc3nc3cc(NC(=O)CCN4CCCC4)ccc23)cc1 shows viability, T/C strictly lower than 70%. y

Determine if O=c1[nH]cc(F)c(=O)[nH]1 + CN(C)c1ccc(Nc2c3ccc(NC(=O)CCN4CCCC4)cc3nc3cc(NC(=O)CCN4CCCC4)ccc23)cc1 shows viability, T/C strictly lower than 70%. y

* * *

Listed here are molecules together with their documented IC50.
Test system: 276233-004-R-J1-PDC complex spheroid viability
Assay: Anticancer human tumor 276233-004-R-J1-PDC cell line growth inhibition [GQUAD];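 also: spheroids exposed to drugs for seven days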
Conditions: curve of first compound; second compound 1 µM

CCc1c2c(nc3ccc(O)cc13)-c1cc3c(c(=O)n1C2)COC(=O)[C@]3(O)CC + CN(C)c1ccc(Nc2c3ccc(NC(=O)CCN4CCCC4)cc3nc3cc(NC(=O)CCN4CCCC4)ccc23)cc1 = > 0.316 µM
O=C(NO)c1cnc(N2CCN(S(=O)(=O)c3ccc4ccccc4c3)CC2)nc1 + CN(C)c1ccc(Nc2c3ccc(NC(=O)CCN4CCCC4)cc3nc3cc(NC(=O)CCN4CCCC4)ccc23)cc1 = 0.385 µM
CCc1c2c(nc3ccc(O)cc13)-c1cc3c(c(=O)n1C2)COC(=O)[C@]3(O)CC + Cc1[nH]c2ccc(F)cc2c1-c1nc2c3cccnc3c3ncccc3c2[nH]1 = > 0.316 µM
O=c1[nH]cc(F)c(=O)[nH]1 + Cc1[nH]c2ccc(F)cc2c1-c1nc2c3cccnc3c3ncccc3c2[nH]1 = > 10 µM

The recorded IC50 for entry CC1COCCN1c1cc(-c2ccnn2C)c2ccnc(-c3ccn[nH]3)c2n1 (stereo not given) + Cc1cnc(CNC(=O)c2c(=O)c3ccc(N4CCCN(C)CC4)nc3n3c2sc2ccccc23)cn1 equals 4.44 µM

The recorded IC50 for entry COc1cc(C2c3cc4c(cc3C(OC3OC5COC(C)OC5C(O)C3O)C3COC(=O)C23)OCO4)cc(OC)c1O (stereo not given) + CN(C)c1ccc(Nc2c3ccc(NC(=O)CCN4CCCC4)cc3nc3cc(NC(=O)CCN4CCCC4)ccc23)cc1 equals > 10 µM

The recorded IC50 for entry O=C(NO)c1cnc(N2CCN(S(=O)(=O)c3ccc4ccccc4c3)CC2)nc1 + Cc1[nH]c2ccc(F)cc2c1-c1nc2c3cccnc3c3ncccc3c2[nH]1 equals 0.102 µM

The recorded IC50 for entry CC1COCCN1c1cc(C2(S(C)(=N)=O)CC2)nc(-c2ccnc3[nH]ccc23)n1 (stereo not given) + Cc1[nH]c2ccc(F)cc2c1-c1nc2c3cccnc3c3ncccc3c2[nH]1 equals > 10 µM
